# TEST TARGET: Muscle, skeletal receptor tyrosine-protein kinase (Homo sapiens) (UniProt O15146);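 also: values are mean inhibition of MuSK from the GSK PKIS kinase screening panel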
# Sequence (O15146 whole entry): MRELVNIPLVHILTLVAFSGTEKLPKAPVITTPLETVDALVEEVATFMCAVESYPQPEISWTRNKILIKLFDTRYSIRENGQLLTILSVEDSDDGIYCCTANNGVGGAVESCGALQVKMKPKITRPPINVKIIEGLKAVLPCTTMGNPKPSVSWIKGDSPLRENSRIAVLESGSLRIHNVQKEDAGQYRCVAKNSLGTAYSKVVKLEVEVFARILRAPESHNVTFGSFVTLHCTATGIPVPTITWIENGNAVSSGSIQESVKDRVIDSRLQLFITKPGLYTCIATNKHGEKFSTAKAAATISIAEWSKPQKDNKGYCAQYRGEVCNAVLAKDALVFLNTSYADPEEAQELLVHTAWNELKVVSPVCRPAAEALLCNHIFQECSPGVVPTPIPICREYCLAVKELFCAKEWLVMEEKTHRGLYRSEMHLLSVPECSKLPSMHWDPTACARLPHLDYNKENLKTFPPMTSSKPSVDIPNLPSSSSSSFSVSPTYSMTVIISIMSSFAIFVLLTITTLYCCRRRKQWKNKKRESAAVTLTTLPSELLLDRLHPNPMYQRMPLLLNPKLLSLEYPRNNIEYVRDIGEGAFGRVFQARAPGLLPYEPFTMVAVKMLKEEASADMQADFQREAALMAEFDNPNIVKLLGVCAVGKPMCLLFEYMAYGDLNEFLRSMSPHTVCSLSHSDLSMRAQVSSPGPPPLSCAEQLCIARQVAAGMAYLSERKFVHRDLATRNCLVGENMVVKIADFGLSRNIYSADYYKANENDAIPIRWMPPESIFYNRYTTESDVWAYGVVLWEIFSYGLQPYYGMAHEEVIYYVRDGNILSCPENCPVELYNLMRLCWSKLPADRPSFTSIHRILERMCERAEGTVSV
# CONDITION INFO: at 0.1 µM

# MOL SMILES, TEST TARGET, inhibition
measured = [
    ("NS(=O)(=O)c1ccc(Nc2ncc(-c3ccccc3)o2)cc1", "Muscle, skeletal receptor tyrosine-protein kinase (Homo sapiens) (UniProt O15146)", "3.44%"),
    ("CCCN1CCC(c2ccc(Nc3nc(Nc4cc(F)ccc4C(N)=O)c4cc[nH]c4n3)c(OC)c2)CC1", "Muscle, skeletal receptor tyrosine-protein kinase (Homo sapiens) (UniProt O15146)", "4.34%"),
    ("COc1cc(N2CCN(C(C)C)CC2)ccc1Nc1nc(Nc2ccc(F)cc2C(N)=O)c2cc[nH]c2n1", "Muscle, skeletal receptor tyrosine-protein kinase (Homo sapiens) (UniProt O15146)", "1.72%"),
    ("COc1cc2ncn(-c3cc(OCc4ccccc4C(F)(F)F)c(C(=O)N(C)C)s3)c2cc1OC", "Muscle, skeletal receptor tyrosine-protein kinase (Homo sapiens) (UniProt O15146)", "-0.19%"),
    ("CCN1CCC(CC(=O)Nc2n[nH]c3nnc(-c4cccc(F)c4F)cc23)CC1", "Muscle, skeletal receptor tyrosine-protein kinase (Homo sapiens) (UniProt O15146)", "1.85%"),
    ("CS(=O)(=O)CCNCc1ccc(-c2ccc3ncnc(Nc4ccc(OCc5ccccc5)c(C(F)(F)F)c4)c3c2)o1", "Muscle, skeletal receptor tyrosine-protein kinase (Homo sapiens) (UniProt O15146)", "1.44%"),
    ("c1cc(-c2cnn3nc(N4CCOCC4)ccc23)nc(NC2CC2)n1", "Muscle, skeletal receptor tyrosine-protein kinase (Homo sapiens) (UniProt O15146)", "4.2%"),
    ("CN1CCC(n2cnc(-c3ccc(F)cc3)c2-c2ccnc(N)n2)CC1", "Muscle, skeletal receptor tyrosine-protein kinase (Homo sapiens) (UniProt O15146)", "0.53%"),
    ("CC(=O)Nc1cccc(C#Cc2cncnc2Nc2ccc(OCc3cccc(F)c3)c(Cl)c2)c1", "Muscle, skeletal receptor tyrosine-protein kinase (Homo sapiens) (UniProt O15146)", "2.39%"),
]

###

# TEST TARGET: Serine/threonine-protein kinase Nek6 (Homo sapiens);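 also: values are mean inhibition of NEK6 from the GSK PKIS screen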
# CONDITION INFO: at 1 µM
PROPERTY MEASURED: inhibition (%)

# MOL SMILES, PROPERTY MEASURED, RESULT VALUE
measured = [
    ("Fc1ccc(-c2nn3ncccc3c2-c2ccnc(Nc3ccc4c(c3)OCCO4)n2)cc1", "inhibition", 3.68),
    ("CNC(=O)c1cc(-c2ccc(F)cc2)cc(-c2ccc(S(=O)(=O)N3CCCC3)cc2)c1N", "inhibition", 2.7),
    ("COc1cc(Nc2nccc(Nc3ccc4c(C)n[nH]c4c3)n2)cc(OC)c1OC", "inhibition", -0.68),
    ("COc1cccc(-n2ncc3c(N/N=C/c4ccc(F)cc4)ncnc32)c1", "inhibition", 3.01),
    ("N#Cc1c(NC(=O)c2ccc(F)cc2)sc2c1CCCC2", "inhibition", 2.25),
    ("COc1ccc(-c2oc3ncnc(N)c3c2-c2ccc(NC(=O)Nc3cc(C(F)(F)F)ccc3F)cc2)cc1", "inhibition", 3.73),
    ("c1cc(-c2cnn3nc(N4CCOCC4)ccc23)nc(NC2CC2)n1", "inhibition", 0.56),
    ("O=S(=O)(CCNCc1ccc(-c2ccc3ncnc(Nc4ccc(OCc5cccc(F)c5)c(Cl)c4)c3c2)o1)c1ccccc1", "inhibition", 2.74),
    ("COc1ccc2[nH]c3c4[nH]c5ccc(OC)cc5c4c4c(c3c2c1)C(=O)NC4=O", "inhibition", 5.14),
    ("CCn1c(-c2nonc2N)nc2ccccc21", "inhibition", 0.38),
    ("CC(C)(CO)CNC(=O)c1ccc2c(c1)/C(=N/Nc1ccc(S(N)(=O)=O)cc1)C(=O)N2", "inhibition", 0.2),
    ("Cc1ccc2c(-c3ccnc(Nc4ccccc4)n3)c(-c3ccc(F)cc3)nn2n1", "inhibition", -0.68),
    ("O=C(Nc1n[nH]c2cc(-c3ccc(F)cc3)ccc12)C1CC1", "inhibition", 2.6),
    ("CN1CCC(n2cnc(-c3ccc(F)cc3)c2-c2ccnc(N)n2)CC1", "inhibition", 2.17),
    ("CC(=O)NCc1cccc(C#Cc2cncnc2Nc2ccc(OCc3cccc(F)c3)c(Cl)c2)c1", "inhibition", -2.65),
    ("CC(=O)Nc1cccc(C#Cc2cncnc2Nc2ccc(OCc3cccc(F)c3)c(Cl)c2)c1", "inhibition", 1.16),
    ("CCn1c(-c2nonc2N)nc2cnc(Oc3cccc(NC(=O)c4ccc(N(C)C)cc4)c3)cc21", "inhibition", 2.25),
    ("N#Cc1c(NC(=O)CN2CCOCC2)sc2c1CCCC2", "inhibition", 5.18),
    ("NS(=O)(=O)c1ccc(N/N=C2\\C(=O)Nc3ccc4ncccc4c32)cc1", "inhibition", -0.3),
    ("Clc1ccc(-c2nn3ncccc3c2-c2ccnc(Nc3ccccc3)n2)cc1", "inhibition", 2.29),
]

Sourced from ChEMBL document CHEMBL1961873
